test system: AGS; test: Cytotoxicity against human AGS cells assessed as growth inhibition after 24 hrs by MTT assay; assay type: cell-based
pIC50: −log10 of the molar value.
readout.name: pIC50

Q) Can you look up the measured pIC50 of C[C@H]1[C@H](C)CC[C@]2(C(=O)OCCCn3ncn(-c4ccccc4)c3=O)CC[C@]3(C)C(=CC[C@@H]4[C@@]5(C)CC[C@H](O)C(C)(C)[C@@H]5CC[C@]43C)[C@H]12 for me?
A) < 3.70

---

tested on: L02; assay: Cytotoxicity against human L02 cells assessed as growth inhibition after 24 hrs by MTT assay; format: cell-based; conditions: L02, 24 h
readout.name: IC50

Q) Can you look up the measured IC50 of C[C@H]1[C@H](C)CC[C@]2(C(=O)OCCCn3ncn(-c4ccccc4)c3=O)CC[C@]3(C)C(=CC[C@@H]4[C@@]5(C)CC[C@H](O)C(C)(C)[C@@H]5CC[C@]43C)[C@H]12 for me?
A) > 200 µM

---

Recorded inhibition in vivo at 100 mg/kg for the following compounds
tested on: Mus musculus; assay: Antiinflammatory activity in mouse assessed as inhibition of para-xylene-induced ear edema at 100 mg/kg, ip administered 30 mins prior to para-xylene challenge measured after 30 mins relative to control; type: functional
Write the value in % as a bare number.

compound	inhibition in vivo at 100 mg/kg / %
COc1ccc2c(c1)c(CC(=O)O)c(C)n2C(=O)c1ccc(Cl)cc1	26.8

Q) Can you look up the measured inhibition in vivo at 100 mg/kg of C[C@H]1[C@H](C)CC[C@]2(C(=O)OCc3nnc(-c4cccc(Br)c4)o3)CC[C@]3(C)C(=CC[C@@H]4[C@@]5(C)CC[C@H](O)C(C)(C)[C@@H]5CC[C@]43C)[C@H]12 for me?
A) 53.7

---

Recorded inhibition in vivo at 100 mg/kg for the following compounds
tested on: Mus musculus; assay: Antiinflammatory activity in mouse assessed as inhibition of para-xylene-induced ear edema at 100 mg/kg, ip administered 30 mins prior to para-xylene challenge measured after 30 mins relative to control; type: functional
Write the value in % as a bare number.

Example cases with answers are listed next.
compound	readout.name	measure.unit	measured.number
C[C@H]1[C@H](C)CC[C@]2(C(=O)OCCCN3CCN(Cc4nnc(-c5cccc(Br)c5)o4)CC3)CC[C@]3(C)C(=CC[C@@H]4[C@@]5(C)CC[C@H](O)C(C)(C)[C@@H]5CC[C@]43C)[C@H]12	inhibition in vivo at 100 mg/kg	%	66.5
C[C@H]1[C@H](C)CC[C@]2(C(=O)OCc3nnc(-c4ccccc4Br)o3)CC[C@]3(C)C(=CC[C@@H]4[C@@]5(C)CC[C@H](O)C(C)(C)[C@@H]5CC[C@]43C)[C@H]12	inhibition in vivo at 100 mg/kg	%	55.3
C[C@H]1[C@H](C)CC[C@]2(C(=O)OCc3nnc(-c4ccccc4Cl)o3)CC[C@]3(C)C(=CC[C@@H]4[C@@]5(C)CC[C@H](O)C(C)(C)[C@@H]5CC[C@]43C)[C@H]12	inhibition in vivo at 100 mg/kg	%	38.8
C[C@H]1[C@H](C)CC[C@]2(C(=O)OCCn3ncn(-c4ccccc4)c3=O)CC[C@]3(C)C(=CC[C@@H]4[C@@]5(C)CC[C@H](O)C(C)(C)[C@@H]5CC[C@]43C)[C@H]12	inhibition in vivo at 100 mg/kg	%	64.2
C[C@H]1[C@H](C)CC[C@]2(C(=O)OCCN3CCN(Cc4nnc(-c5cccc(Br)c5)o4)CC3)CC[C@]3(C)C(=CC[C@@H]4[C@@]5(C)CC[C@H](O)C(C)(C)[C@@H]5CC[C@]43C)[C@H]12	inhibition in vivo at 100 mg/kg	%	61
C[C@H]1[C@H](C)CC[C@]2(C(=O)O)CC[C@]3(C)C(=CC[C@@H]4[C@@]5(C)CC[C@H](O)C(C)(C)[C@@H]5CC[C@]43C)[C@H]12	inhibition in vivo at 100 mg/kg	%	57.7
C[C@H]1[C@H](C)CC[C@]2(C(=O)OCCCCn3ncn(-c4ccccc4)c3=O)CC[C@]3(C)C(=CC[C@@H]4[C@@]5(C)CC[C@H](O)C(C)(C)[C@@H]5CC[C@]43C)[C@H]12	inhibition in vivo at 100 mg/kg	%	66.1
CC(C)Cc1ccc(C(C)C(=O)O)cc1 (centres undefined)	inhibition in vivo at 100 mg/kg	%	25.2
C[C@H]1[C@H](C)CC[C@]2(C(=O)OCCCN3CCN(Cc4nnc(-c5ccccc5)o4)CC3)CC[C@]3(C)C(=CC[C@@H]4[C@@]5(C)CC[C@H](O)C(C)(C)[C@@H]5CC[C@]43C)[C@H]12	inhibition in vivo at 100 mg/kg	%	47.8
Cc1ccccc1-c1nnc(COC(=O)[C@]23CC[C@@H](C)[C@H](C)[C@H]2C2=CC[C@@H]4[C@@]5(C)CC[C@H](O)C(C)(C)[C@@H]5CC[C@@]4(C)[C@]2(C)CC3)o1	inhibition in vivo at 100 mg/kg	%	57.2

We next turn to a different compound, shown below.
Q) // fetch Mus musculus inhibition in vivo at 100 mg/kg for C[C@H]1[C@H](C)CC[C@]2(C(=O)OCCN3CCN(Cc4nnc(-c5ccccc5)o4)CC3)CC[C@]3(C)C(=CC[C@@H]4[C@@]5(C)CC[C@H](O)C(C)(C)[C@@H]5CC[C@]43C)[C@H]12
A) 59.1
